Values from ChEMBL document CHEMBL3994591

# Species on record: Homo sapiens
# measurement-protocol: Selectivity index, ratio of IC50 for butyrylcholinesterase (unknown origin) to IC50 for acetylcholinesterase (unknown origin)
Threshold check on Ratio IC50: strictly below 1 is Condition met; on or above 1 is Condition not met.

Answered cases to consult:
COc1cc(/C=C/C(=O)Nc2ccccc2)ccc1OCCCCCCCCN1CCCCC1; Condition not met
CCN(CC)CCCCCCCCOc1ccc(/C=C/C(=O)Nc2ccccc2)cc1OC; Condition not met
COc1cc(/C=C/C(=O)O)ccc1OCCCCCCN1CCCCC1; Condition not met
COc1cc(/C=C/C(=O)Nc2ccccc2)ccc1OCCCCN1CCCC1; Condition met

Query: Dear colleague, could you confirm whether Ratio IC50 of "CCN(CC)CCCCCCCCOc1ccc(/C=C/C(=O)O)cc1OC" falls below 1? Thanks.
Reply: Condition not met

Query: Strictly below 1: is that where Ratio IC50 of "COc1cc(/C=C/C(=O)Nc2ccccc2)ccc1OCCCCCCCCN(C)C" sits?
Reply: Condition not met

Query: Quick check: does "COc1cc(/C=C/C(=O)O)ccc1OCCCCCCN1CCCC1" have Ratio IC50 under 1?
Reply: Condition not met

Query: Report whether reported Ratio IC50 is lower than 1 (strictly) for "COc1cc(/C=C/C(=O)Nc2ccccc2)ccc1OCCCCCCCCCCN(C)C"
Reply: Condition not met

Query: Strictly below 1 in Ratio IC50? "CCN(CC)CCCCOc1ccc(/C=C/C(=O)Nc2ccccc2)cc1OC"
Reply: Condition met

Query: Does "CCN(CC)CCCCCCCCCCOc1ccc(/C=C/C(=O)Nc2ccccc2)cc1OC" have Ratio IC50 strictly under 1?
Reply: Condition met

Query: I'd appreciate it if you could check whether "CCOC(=O)/C=C/c1ccc(OCCCCCCN2CCCC2)c(OC)c1" has Ratio IC50 smaller than 1.
Reply: Condition not met

Query: Please check: Ratio IC50 for "COc1cc(/C=C/C(=O)Nc2ccccc2)ccc1OCCN1CCCCC1" , strictly under 1 or not?
Reply: Condition met

Query: I wonder whether "COc1cc(/C=C/C(=O)Nc2ccccc2)ccc1OCCCN(C)C" has Ratio IC50 below 1. Can you tell?
Reply: Condition met

Query: Please let me know if "COc1cc(/C=C/C(=O)Nc2ccccc2)ccc1OCCCCCCCCN1CCCC1" shows Ratio IC50 below 1.
Reply: Condition not met

Query: Check if Ratio IC50 falls below 1 for "COc1cc(/C=C/C(=O)Nc2ccccc2)ccc1OCCCCN(C)C" .
Reply: Condition met

Query: Determine if "COc1cc(/C=C/C(=O)Nc2ccccc2)ccc1OCCCCCCN1CCCCC1" shows Ratio IC50 strictly lower than 1.
Reply: Condition not met
